Reference source for all entries: the supplement of paper PMC7877785

assay_notes: self-splicing fitness, log relative to wild type (ln ratio); higher = more splicing; Tetrahymena group I intron in knt gene, E. coli kanamycin selection, DiMSum; sequences stand for … in CUCUCU…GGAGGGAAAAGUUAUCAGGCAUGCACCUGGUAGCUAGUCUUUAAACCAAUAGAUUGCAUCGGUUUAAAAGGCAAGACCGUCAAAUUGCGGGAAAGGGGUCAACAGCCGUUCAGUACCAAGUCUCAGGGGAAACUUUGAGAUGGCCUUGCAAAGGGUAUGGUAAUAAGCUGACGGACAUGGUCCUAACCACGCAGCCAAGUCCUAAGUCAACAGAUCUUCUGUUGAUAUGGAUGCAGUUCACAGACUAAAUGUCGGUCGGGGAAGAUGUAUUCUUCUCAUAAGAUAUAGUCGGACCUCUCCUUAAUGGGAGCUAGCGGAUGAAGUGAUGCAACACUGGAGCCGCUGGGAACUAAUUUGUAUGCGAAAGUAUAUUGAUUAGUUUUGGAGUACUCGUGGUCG;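 also: selection with 25 µg/mL kanamycin versus none on LB agar overnight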
recorded_conditions: 37 °C
The threshold is inclusive: self-splicing fitness (ln) of exactly -2 counts as TRUE; values below receive FALSE.

API: above_or_equal(metric=self-splicing fitness (ln), cutoff=-2) for item `GCUCAGCAAUAUUACGGUCU`
TRUE

API: above_or_equal(metric=self-splicing fitness (ln), cutoff=-2) for item `AGGCAGCAAUAUUACGUUCU`
TRUE

API: above_or_equal(metric=self-splicing fitness (ln), cutoff=-2) for item `CAGUAGCAAUAUUACGUUCA`
FALSE

API: above_or_equal(metric=self-splicing fitness (ln), cutoff=-2) for item `CAAAAGCAAUAUUACGCCCG`
TRUE

API: above_or_equal(metric=self-splicing fitness (ln), cutoff=-2) for item `CACGAGCAAUAUUACGAACU`
TRUE

API: above_or_equal(metric=self-splicing fitness (ln), cutoff=-2) for item `AAUCAGCAAUAUUACGUGGU`
TRUE

API: above_or_equal(metric=self-splicing fitness (ln), cutoff=-2) for item `AGCGAGCAAUAUUACGAUGG`
FALSE

API: above_or_equal(metric=self-splicing fitness (ln), cutoff=-2) for item `GCUAAGCAAUAUUACGGGCC`
FALSE

API: above_or_equal(metric=self-splicing fitness (ln), cutoff=-2) for item `UAAUAGCAAUAUUACGCGGU`
FALSE

API: above_or_equal(metric=self-splicing fitness (ln), cutoff=-2) for item `GGUAAGCAAUAUUACGUAUU`
TRUE

API: above_or_equal(metric=self-splicing fitness (ln), cutoff=-2) for item `GGCAAGCAAUAUUACGUCCU`
TRUE

API: above_or_equal(metric=self-splicing fitness (ln), cutoff=-2) for item `GUCAAGCAAUAUUACGAAAA`
FALSE

API: above_or_equal(metric=self-splicing fitness (ln), cutoff=-2) for item `GCGCAGCAAUAUUACGUAGA`
TRUE

API: above_or_equal(metric=self-splicing fitness (ln), cutoff=-2) for item `CUCAAGCAAUAUUACGCACU`
FALSE

----------
Exercise: for every item that follows, state its recorded self-splicing fitness (ln).
assay_notes: self-splicing fitness, log relative to wild type (ln ratio); higher = more splicing; Tetrahymena group I intron in knt gene, E. coli kanamycin selection, DiMSum; sequences stand for … in CUCUCU…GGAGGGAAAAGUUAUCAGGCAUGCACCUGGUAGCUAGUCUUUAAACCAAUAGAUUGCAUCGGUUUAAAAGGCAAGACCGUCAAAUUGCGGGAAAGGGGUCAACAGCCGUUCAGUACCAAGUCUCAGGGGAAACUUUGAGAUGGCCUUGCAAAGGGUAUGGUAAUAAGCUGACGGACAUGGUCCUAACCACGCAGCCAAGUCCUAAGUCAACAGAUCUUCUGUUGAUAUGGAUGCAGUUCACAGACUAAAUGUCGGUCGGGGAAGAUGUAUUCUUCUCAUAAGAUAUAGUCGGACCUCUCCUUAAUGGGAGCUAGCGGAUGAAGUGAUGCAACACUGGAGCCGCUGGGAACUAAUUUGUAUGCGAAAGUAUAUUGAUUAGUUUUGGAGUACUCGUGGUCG
recorded_conditions: 30 °C
Hey, just send me the number, nothing else.

Specify self-splicing fitness (ln) for `CCAGAGCAAUAUUACGUCAA` and stop.
-4.08

Specify self-splicing fitness (ln) for `AUAGAGCAAUAUUACGCUAU` and stop.
-2.49

Specify self-splicing fitness (ln) for `CUCUAGCAAUAUUACGUGUA` and stop.
-3.62

Specify self-splicing fitness (ln) for `ACUGAGCAAUAUUACGUCCU` and stop.
-2.07

Specify self-splicing fitness (ln) for `CCCUAGCAAUAUUACGACAU` and stop.
-3.81

Specify self-splicing fitness (ln) for `CCCGAGCAAUAUUACGAUCC` and stop.
-2.76

Specify self-splicing fitness (ln) for `GUAUAGCAAUAUUACGUGGC` and stop.
-3.62

Specify self-splicing fitness (ln) for `CGAUAGCAAUAUUACGGCAU` and stop.
-2.85

Specify self-splicing fitness (ln) for `UGAGAGCAAUAUUACGAAAU` and stop.
-2.66

Specify self-splicing fitness (ln) for `CUAGAGCAAUAUUACGAGGA` and stop.
-2.99

Specify self-splicing fitness (ln) for `GCUAAGCAAUAUUACGGGGG` and stop.
-3.45

Specify self-splicing fitness (ln) for `UUAGAGCAAUAUUACGACGG` and stop.
0.111

Specify self-splicing fitness (ln) for `GCAAAGCAAUAUUACGAUAA` and stop.
-1.48

Specify self-splicing fitness (ln) for `GUACAGCAAUAUUACGCUGA` and stop.
-2.47

Specify self-splicing fitness (ln) for `GUAGAGCAAUAUUACGACAG` and stop.
-3.49

Specify self-splicing fitness (ln) for `UGGCAGCAAUAUUACGUCUG` and stop.
-1.31
